Measured values drawn from patent US20260151494A1 for this set.

assayed_target: T1, human apical domain of CD71 (human, UniProt P02786 189-383, limits assumed)
T1 construct: domain: apical domain
T1 sequence (P02786 189-383 limits assumed): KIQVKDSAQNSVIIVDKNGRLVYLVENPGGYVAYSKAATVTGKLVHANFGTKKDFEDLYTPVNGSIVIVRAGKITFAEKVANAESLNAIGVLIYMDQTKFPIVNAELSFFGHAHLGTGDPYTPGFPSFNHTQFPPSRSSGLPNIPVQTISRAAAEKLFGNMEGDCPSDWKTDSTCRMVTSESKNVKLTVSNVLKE
test_details: primary ELISA; signal over HSA control
measurement_name: Apical domain:HSA (ratio)

Some binders with recorded Apical domain:HSA:
CD71-binding FN3 domain SEQ ID NO 385 (designed binder) MLPAPKNLVVSRVTEDSARLSWTAPDAAFDSFFIGYLEPQPPGEAIDLYVPGSERSYDLTGLKPGTEYNVTIQGVKGGFPSHPLQAHFTT    146
CD71-binding FN3 domain SEQ ID NO 403 (designed binder) MLPAPKNLVVSRVTEDSARLSWTAPDAAFDSFYIAYAEPRPDGEAIVLDVPGSERSYDLTGLKPGTEYSVLIHGVKGGLLSSPLVADFTT    342

1: CD71-binding FN3 domain SEQ ID NO 409 (designed binder) MLPAPKNLVVSRVTEDSARLSWTAPDAAFDSFFIGYLEPQPPGEAIHLFVPGSERSYDLTGLKPGTEYNVTIQGVKGGFPSNPLSAQFTT
2: CD71-binding FN3 domain SEQ ID NO 373 (designed binder) MLPAPKNLVVSRVTEDSARLSWTAPDAAFDSFFIGYLEPQPPGEAISLFVPGSERSYDLTGLKPGTEYNVTIQGVKGGFPSDPLVASFTT
[Q] Lower Apical domain:HSA: 1 or 2 ? Return value: the label identifying the chosen record.
[A] 2
(2: 115 ratio, 1: 284 ratio)
